- Test system: Wolbachia pipientis
- RUN_DESCRIPTION: Anti-Wolbachia Cell-Based Screen
- Format: functional
- Design: scale not given: in the data most compounds retested in dose-response had high values
- CONDITION_DETAILS: 5 µM
Out of some 48,000 compounds screened, about 13,000 (27%) showed an effect of 50% or more. The list shows a part of the results.

COMPOUND	Percent Effect (%)
COCCCN1CCCCC12CC(=O)N(Cc1ccccn1)C2 (stereo not drawn)	-0.9294
c1cc(CN2CC[C@@H]3CN(c4cncnc4)C[C@@H]3C2)ccn1	100.2
Clc1cc(N2CCN3CCCCC3C2)nc2[nH]ccc12 (stereo not drawn)	91.81
N#Cc1ccc(N2CCC(OC3CCOCC3)CC2)cc1Cl	-7.664
O=C(O)C(F)(F)F.O=C(O)C(F)(F)F.O=C1[C@H]2CN(Cc3ccncc3)C[C@H]2CN1c1cncnc1	-1.722
Cc1ccc(CN2CC[C@@H]3[C@H]2CCC(=O)N3Cc2ccncc2)s1.O=C(O)C(F)(F)F.O=C(O)C(F)(F)F	13.87
Cc1ccc(N2CC[C@@H]3CN(Cc4cc[nH]n4)C[C@@H]3C2)nn1.O=C(O)C(F)(F)F	-9.951
O=C(O)C(F)(F)F.c1cc(CN2CC[C@@H]3CN(c4cnccn4)C[C@@H]3C2)ccn1	126.3
CC[C@@H]1N(Cc2ccccn2)CCC[C@]12CCC(=O)N2CCOC	95.06
O=C(O)C(F)(F)F.O=C1[C@H]2CN(Cc3ccc(F)cc3)C[C@H]2CN1c1cncnc1	-0.4188
Clc1cc(CN2CCCN3CCCC3C2)c2ncccc2c1 (stereo not drawn)	-2.153
O=C(O)C(F)(F)F.c1cnc(N2C[C@H]3CCN(Cc4ccncc4)C[C@H]3C2)nc1	87.9
Cn1cc(N2C[C@@H]3CN(Cc4ccccn4)C[C@@H]3C2=O)cn1.O=C(O)C(F)(F)F.O=C(O)C(F)(F)F	-17.49
Cc1cnc(N2CC[C@H]3[C@H](C[C@@H](CN(C)C)N3C)C2)nc1.O=C(O)C(F)(F)F.O=C(O)C(F)(F)F.O=C(O)C(F)(F)F	-11.75
O[C@@]1(CNCCCNc2cccnc2)CCCN2CCCC[C@@H]21	3.199
Cc1nnc(N2CCNCC2)c(C(N)=O)c1C	-61.72
O=C(O)C(F)(F)F.O=C(O)C(F)(F)F.c1ccc(N2CC[C@@H]3CN(Cc4ccncc4)CCO[C@@H]3C2)cc1	-7.726
COCC(=O)NC[C@H]1C[C@@H]2CCN1C[C@@H]2CN1CCc2ccccc2C1	-3.386

Sourced from ChEMBL document CHEMBL3988442
